# study.system: AgrC-II (Staphylococcus aureus, UniProt O33587)
# Sequence (O33587 1-437): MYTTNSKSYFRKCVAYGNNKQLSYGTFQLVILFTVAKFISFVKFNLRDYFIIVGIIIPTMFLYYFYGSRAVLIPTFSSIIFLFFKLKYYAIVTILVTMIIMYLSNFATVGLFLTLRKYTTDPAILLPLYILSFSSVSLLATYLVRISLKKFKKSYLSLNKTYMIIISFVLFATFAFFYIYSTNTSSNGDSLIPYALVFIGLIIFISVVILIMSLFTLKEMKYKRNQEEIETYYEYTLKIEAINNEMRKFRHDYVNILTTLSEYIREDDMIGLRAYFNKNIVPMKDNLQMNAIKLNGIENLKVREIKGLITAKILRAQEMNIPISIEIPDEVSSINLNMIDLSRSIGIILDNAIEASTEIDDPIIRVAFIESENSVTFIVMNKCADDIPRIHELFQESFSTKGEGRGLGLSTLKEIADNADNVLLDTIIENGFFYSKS
# assay.summary: Hemolysis assay, wild-type group-II strain RN6923, rabbit red blood cells
# condition.label: read-out: AgrC-II IC50; selected second-generation analogues, hemolysis assay; 200 fM − 10 μM
Positions of bridges follow the written chain, without caps; N, C: chain ends. Residues, ends and D or L forms follow the SMILES beside them.
experimental.endpoint: IC50 (nM)

1. CC[C@H](C)[C@H](N)C(=O)N[C@@H](C)C(=O)N[C@H]1CSC(=O)[C@H](CC(C)C)NC(=O)[C@H](CC(C)C)NC(=O)[C@H](Cc2ccccc2)NC(=O)[C@H](C)NC1=O [AIP-III N2A/D4A, I-A-(C-A-F-L-L)] (H-IACAFLL; thioester 3-C)    0.0661
2. CC(=O)N[C@H]1CSC(=O)[C@H](CC(C)C)NC(=O)[C@H](CC(C)C)NC(=O)[C@H](Cc2c[nH]c3ccccc23)NC(=O)[C@H](C)NC1=O [Ac-(C-A-W-L-L)] (Ac-CAWLL; thioester 1-C)    0.126
3. CC(C)C[C@@H]1NC(=O)[C@H](Cc2ccccc2)NC(=O)[C@H](C)NC(=O)[C@@H](NC(=O)[C@H](CC(N)=O)NC(=O)[C@H](C)N)CSC(=O)[C@H](CC(C)C)NC1=O [AIP-III I1A/D4A, A-N-(C-A-F-L-L)] (H-ANCAFLL; thioester 3-C)    0.793
4. CC(=O)N[C@H]1CSC(=O)[C@H](CC(C)C)NC(=O)[C@H](CC(C)C)NC(=O)[C@H](Cc2ccccc2)NC(=O)[C@H](C)NC1=O [tAIP-III D2A, Ac-(C-A-F-L-L)] (Ac-CAFLL; thioester 1-C)    0.711

* * *

# study.system: AgrC-III (Staphylococcus aureus, UniProt O33590)
# Sequence (O33590 1-425): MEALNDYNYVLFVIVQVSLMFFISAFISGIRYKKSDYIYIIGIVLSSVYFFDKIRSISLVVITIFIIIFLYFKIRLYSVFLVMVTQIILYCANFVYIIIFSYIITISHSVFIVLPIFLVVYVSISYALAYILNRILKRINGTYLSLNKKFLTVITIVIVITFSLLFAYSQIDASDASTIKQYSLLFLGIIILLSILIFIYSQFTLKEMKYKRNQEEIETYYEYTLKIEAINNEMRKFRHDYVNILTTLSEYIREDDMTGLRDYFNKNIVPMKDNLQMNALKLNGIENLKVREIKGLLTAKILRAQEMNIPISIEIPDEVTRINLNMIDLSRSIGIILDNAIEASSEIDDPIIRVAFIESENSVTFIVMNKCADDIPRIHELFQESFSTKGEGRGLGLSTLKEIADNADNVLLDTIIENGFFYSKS
# Type: cell-based, S. aureus
# condition.label: read-out: AgrC-III IC50; second-generation analogues, fluorescence reporter strain; 200 fM − 10 μM
pIC50: −log10 of the molar value. Positions of bridges follow the written chain, without caps; N, C: chain ends. Residues, ends and D or L forms follow the SMILES beside them.
experimental.endpoint: pIC50

1. CC[C@H](C)[C@H](NC(=O)[C@@H](N)Cc1ccc(O)cc1)C(=O)N[C@@H](CC(N)=O)C(=O)N[C@H]1CSC(=O)[C@H](CC(C)C)NC(=O)[C@H](CC(C)C)NC(=O)[C@H](Cc2ccccc2)NC(=O)[C@H](CC(=O)O)NC1=O [Y-AIP-III, Y-I-N-(C-D-F-L-L)] (H-YINCDFLL; thioester 4-C)    7.41
2. CC(C)C[C@@H]1NC(=O)[C@H](Cc2ccccc2)NC(=O)[C@H](C)NC(=O)[C@@H](NC(=O)[C@H](C)NC(=O)[C@H](C)N)CSC(=O)[C@H](CC(C)C)NC1=O [AIP-III I1A/N2A/D4A, A-A-(C-A-F-L-L)] (H-AACAFLL; thioester 3-C)    10.13
3. CC(C)C[C@@H]1NC(=O)[C@H](Cc2ccccc2)NC(=O)[C@H](C)NC(=O)[C@@H](NC(=O)[C@H](CC(N)=O)NC(=O)[C@H](C)N)CSC(=O)[C@H](CC(C)C)NC1=O [AIP-III I1A/D4A, A-N-(C-A-F-L-L)] (H-ANCAFLL; thioester 3-C)    9.55
4. CC(=O)N[C@H]1CSC(=O)[C@H](CC(C)C)NC(=O)[C@H](CC(C)C)NC(=O)[C@H](Cc2c[nH]c3ccccc23)NC(=O)[C@H](C)NC1=O [Ac-(C-A-W-L-L)] (Ac-CAWLL; thioester 1-C)    9.29
